// reported Platelets for each item listed
protocol-summary: Tolerability in CD1 mice: hematology assays (Example 43)
Format: in vivo
measurement-setup: 50 mg/kg s.c. twice per week for 6 weeks, blood
Strand notation (5' to 3'): a small letter for the sugar, then the base; units joined by * are phosphorothioate-linked, units joined directly phosphodiester-linked; [ ] holds rarer units or linkages, { } end groups; capitals alone tell only the bases. e = 2'-O-(2-methoxyethyl) (MOE); [5mC] = 5-methylcytosine; d = 2'-deoxy (DNA)
reported-property: Platelets (nL⁻¹)

{"substance": "ISIS 449708: 3-8-3, 4-8-4, 2-10-2, 3-10-3 or 4-10-4 MOE microwalk gapmer (Table 46) (antisense eA*e[5mC]*eA*dG*dT*dT*dT*d[5mC]*dT*dG*dG*e[5mC]*eA*eG)", "endpoint-value": 1395}
{"substance": "ISIS 449711: 3-8-3, 4-8-4, 2-10-2, 3-10-3 or 4-10-4 MOE microwalk gapmer (Table 46) (antisense eA*e[5mC]*dA*dG*dT*dT*dT*d[5mC]*dT*dG*dG*d[5mC]*eA*eG)", "endpoint-value": 1225}
{"substance": "ISIS 449707: 3-8-3, 4-8-4, 2-10-2, 3-10-3 or 4-10-4 MOE microwalk gapmer (Table 46) (antisense e[5mC]*eA*e[5mC]*eA*dG*dT*dT*dT*d[5mC]*dT*dG*dG*e[5mC]*eA*eG*eG)", "endpoint-value": 1386}
{"substance": "ISIS 449710: 3-8-3, 4-8-4, 2-10-2, 3-10-3 or 4-10-4 MOE microwalk gapmer (Table 46) (antisense e[5mC]*eA*e[5mC]*dA*dG*dT*dT*dT*d[5mC]*dT*dG*dG*d[5mC]*eA*eG*eG)", "endpoint-value": 1245}
{"substance": "ISIS 449709: 3-8-3, 4-8-4, 2-10-2, 3-10-3 or 4-10-4 MOE microwalk gapmer (Table 46) (antisense eG*e[5mC]*eA*e[5mC]*dA*dG*dT*dT*dT*d[5mC]*dT*dG*dG*d[5mC]*eA*eG*eG*e[5mC])", "endpoint-value": 1447}
